Test system: HT29 colon
run.description: NCI tumour cell line growth inhibition, 48 h
Catalogue of TGI readings, one per entry.

molecule: O=c1cnnc(N/N=C/c2ccccc2O)[nH]1
TGI: > 100 µM
//
molecule: C=CC(=O)N1C[C@@H]2CCOc3c(Cl)c(-c4c(O)cccc4F)c(F)c4ncnc(c34)N2C[C@H]1C
TGI: 52.5 µM
//
molecule: CC1(C)N=C(N)N=C(N)N1c1ccc(Cl)cc1
TGI: > 100 µM
//
molecule: C=C1[C@H](OCC(C)C)[C@@H](O)[C@@H](OC(=O)c2cccnc2)C(C)(C)/C=C/[C@H](C)[C@H](OC(C)=O)[C@@]2(O)C[C@@](C)(OC(C)=O)[C@H](OC(=O)c3ccccc3)[C@@H]2[C@H]1OC(C)=O
TGI: 1.17 µM
//
molecule: CC(=O)Nc1ccc(C(=O)NN2C(=O)CSC2c2ccc(O)cc2)cc1 (configuration not stated)
TGI: > 100 µM
//
molecule: O=C1C(=C([O-])c2ccccc2)C(=O)c2ccccc21.O=C1C(=C([O-])c2ccccc2)C(=O)c2ccccc21.[Mn+2]
TGI: > 100 µM
//
molecule: Oc1ccc2c3c1OC1c4[nH]ncc4C[C@H]4[C@@H](C2)N(CC2CC2)CC[C@]314 (some centres not stated)
TGI: > 100 µM
//
molecule: CCOC(=O)C(CCC(N)=O)(CCC(=O)OC)C(=O)OCC
TGI: > 100 µM
//
molecule: COC1(C)C(=O)N2C1N(C(=O)OC(C)(C)C)CC2(C)C (configuration not stated)
TGI: > 100 µM
//
molecule: CC(C)(C)c1cc(/C=N/NC(=O)c2ccccc2NC(=O)c2cccs2)c(O)c(C(C)(C)C)c1
TGI: > 100 µM
//
molecule: CCCC1CC(=O)NC(=O)C1C(=O)OC(C)(C)C (configuration not stated)
TGI: > 100 µM
//
molecule: O=C(O)c1cc(=O)cc(C(=O)O)o1
TGI: > 100 µM
//
molecule: CCOC(=O)CC[C@H](NC(=O)N[C@H](C)c1ccccc1)C(=O)OCC
TGI: > 100 µM
//
molecule: O/N=C(/CC(O)(C(F)(F)F)C(F)(F)F)c1ccccc1
TGI: > 10 µM
//
molecule: O=C(NCCC1CN(C(=O)OCc2ccccc2)c2ccccc21)OCc1ccccc1 (configuration not stated)
TGI: > 100 µM
//
molecule: COC(=O)c1ccccc1CC1Cc2cc3c(cc2C1=O)CCC3 (configuration not stated)
TGI: 41.4 µM
//
molecule: O=Nc1c(-c2c(O)[nH]c3cc(Br)ccc23)[nH]c2ccccc12
TGI: 3.44 µM

###

Catalogue of log10 of TGI readings, one per entry.
Test system: RXF 393 renal
run.description: NCI tumour cell line growth inhibition, 48 h
value.kind: log10 of TGI (log10 of the value in µM)

compound: Cc1[nH]c(=O)[nH]c(=O)c1/C=C/C(=O)NC(CO)CS(=O)CS(C)=O (stereo not given)
assayed.target: RXF 393 renal
log10 of TGI: 2.10
//
compound: COc1cc(/C=C/c2cc(/C=C/c3ccc(O)c(OC)c3)n(C(=O)Nc3ccccc3Cl)n2)ccc1O
assayed.target: RXF 393 renal
log10 of TGI: -0.07
//
compound: CCCCCCCCCCCCCC1=C(O)C(=O)C(CC2=C(O)C(=O)C(CCCCCCCCCCCCC)=C(O)C2=O)=C(O)C1=O
assayed.target: RXF 393 renal
log10 of TGI: 1.51
//
compound: O=C1C=CC(=C(c2ccccc2)c2ccc(O)cc2)C=C1
assayed.target: RXF 393 renal
log10 of TGI: 1.48
//
compound: NS(=O)(=O)c1ccc(NC(=O)Cc2nc3ccccc3s2)cc1
assayed.target: RXF 393 renal
log10 of TGI: 1.51

###

Tested on: HCT-15 colon
run.description: NCI tumour cell line growth inhibition, 48 h
value.kind: TGI

compound: Cn1c2c(c3ccccc31)CCN(CCCCN1CCN(c3ccccc3)CC1)C2=O
value.kind: TGI
value.measured: > 100 µM
//
compound: O=c1oc2ccccc2c(O)c1C(c1cnc2ccccc2c1)c1c(O)c2ccccc2oc1=O
value.kind: TGI
value.measured: > 100 µM
//
compound: COc1cc(C2OC(N)=C(C#N)C3=C2C(C)CCC3)cc(OC)c1OC (stereo not drawn)
value.kind: TGI
value.measured: > 100 µM

###

Tested on: MOLT-4 leukemia
run.description: NCI tumour cell line growth inhibition, 48 h

structure.as.smiles: O/N=C(/CC(O)(C(F)(F)F)C(F)(F)F)c1ccccc1
TGI: > 10 µM
--
structure.as.smiles: O=[N+]([O-])c1cccc(-c2ncc3c(n2)-c2ccccc2C3)c1
TGI: > 100 µM
--
structure.as.smiles: O=C(O)c1ccccc1CC1Cc2cc3c(cc2C1)CCC3
TGI: > 100 µM

###

Catalogue of GI50 readings, one per entry.
Tested on: SK-MEL-28 melanoma
run.description: NCI tumour cell line growth inhibition, 48 h
value.kind: GI50

structure.as.smiles: COC(=O)c1cc2oc(/C=C3/SC(=S)N(N)C3=O)cc2n1Cc1ccccc1
value.kind: GI50
value.measured: 7.48 µM
--
structure.as.smiles: O=C(c1ccc(C(F)(F)F)c(Cl)c1)N(Cc1ccc(Cl)cc1)c1ccc(-c2cc(C(F)(F)F)[nH]n2)c(O)c1
value.kind: GI50
value.measured: 1.43 µM
--
structure.as.smiles: CC(C)(C)CC(C)(C)c1ccc(O)c(Cc2ccc(Cl)cc2Cl)c1
value.kind: GI50
value.measured: 1.61 µM
--
structure.as.smiles: COc1cc(/C=C2\CCC/C(=C\c3ccc(O)c(OC)c3)C2=O)ccc1O
value.kind: GI50
value.measured: 1.68 µM
--
structure.as.smiles: CC(C)(c1ccccc1)c1cc(O)c(C(C)(C)c2ccccc2)cc1O
value.kind: GI50
value.measured: 2.81 µM
--
structure.as.smiles: COC(=O)[C@]12CC[C@@H](C)[C@H](C)[C@@H]1C1=CC[C@@H]3[C@@]4(C)C[C@@H](OC(=O)/C=C/c5ccccc5)[C@H](O)[C@@](C)(CO)[C@@H]4[C@H](O)C[C@@]3(C)[C@]1(C)CC2
value.kind: GI50
value.measured: 2.69 µM
--
structure.as.smiles: N#Cc1c(NC(=O)c2ccc(F)cc2)sc2c1CCCC2
value.kind: GI50
value.measured: > 25 µM
--
structure.as.smiles: COc1cc([N+](=O)[O-])c(OC)cc1-c1nc2sc(C)cn2c1/C(N)=N/C(=N)N
value.kind: GI50
value.measured: 7.02 µM

###

Tested on: SR leukemia
run.description: NCI tumour cell line growth inhibition, 48 h; in the data active = GI50 below about 0.43 µM; inactive = the rest
Outcome codes: 1 (yes) (active), 0 (no) (inactive)

compound: COC(=O)c1cc2oc(/C=C3/SC(=S)N(N)C3=O)cc2n1Cc1ccccc1
cat: 0 (no)
//
compound: Cn1cc(C2=C(c3cn(-c4ccccc4)c4ccccc34)C(=O)NC2=O)c2ccccc21
cat: 0 (no)
//
compound: COc1cc(CNCCN2C(=O)c3ccc4c5c(ccc(c35)C2=O)C(=O)N(CCNCc2cc(OC)c(OC)c(OC)c2)C4=O)cc(OC)c1OC
cat: 1 (yes)
//
compound: CC(=O)CC/C=C(\C)[C@H](O)[C@H](C)C(=O)O[C@H]1C[C@H](C)C=C2C=C[C@@]3(C)O[C@@H](O)CC(=O)[C@]3(C)[C@H]21
cat: 1 (yes)
//
compound: COc1ccc(C2CC(c3ccc(Nc4ccnc5cc(Cl)ccc45)cc3)=NN2C=O)cc1 (stereo not given)
cat: 0 (no)

###

Test system: OVCAR-3 ovarian
run.description: NCI tumour cell line growth inhibition, 48 h; in the data active = GI50 below about 0.43 µM; inactive = the rest
Outcome codes: active, inactive

compound: COc1ccc(NC2=C(I)C(=O)c3ncccc3C2=O)cc1
cat: active
//
compound: N#CC1=C(N)NC(=S)NC12Nc1ccccc1S2 (configuration not stated)
cat: inactive
//
compound: O=C1C(=C([O-])c2ccccc2)C(=O)c2ccccc21.O=C1C(=C([O-])c2ccccc2)C(=O)c2ccccc21.[Mn+2]
cat: inactive
//
compound: COc1cc([N+](=O)[O-])c(OC)cc1-c1nc2sc(C)cn2c1/C(N)=N/C(=N)N
cat: inactive
//
compound: COc1cc(N2C(=O)[C@H](c3ccccc3)C2c2ccc(SC)cc2)cc(OC)c1OC (some centres not stated)
cat: active
//
compound: CC1(C)N=C(N)N=C(N)N1c1ccc(OCCCNC(=O)Nc2cccc(S(=O)(=O)F)c2)c(Cl)c1
cat: inactive
//
compound: COc1ccc(C(=NN=C(N)N)c2ccc(OC)cc2)cc1
cat: inactive

###

Catalogue of TGI readings, one per entry.
Tested on: SR leukemia
run.description: NCI tumour cell line growth inhibition, 48 h

compound: CCOC(=O)Cn1c2ccc(Br)cc2c2nc3ccccc3nc21
TGI: > 100 µM
--
compound: CC(=O)OCC1OC(N2C(c3ccccc3)=CC(c3ccco3)C(C#N)=C2S)C(OC(C)=O)C(OC(C)=O)C1OC(C)=O (stereo not drawn)
TGI: > 37.5 µM
--
compound: COc1ccc2c(=O)cc(-c3ccc(OC)c(OC)c3OC)oc2c1
TGI: > 100 µM
